FYI, the data here is from a melting point compilation (Tetko et al.; mined from patent text by program, amines drawn as free bases though some values may be those of a salt).

readout type: melting point

Worked examples, 5 compounds total:
| compound | melting point |
| --- | --- |
| CCOC(=O)c1cc(CC(C)(C)NC(=O)OC(C)(C)C)n(CCOC)n1 | 92 to 93 °C |
| CC(C)(C)OC(=O)N1CCC(S(C)(=O)=O)CC1 | 94 to 95 °C |
| CCOC(=O)c1nc2c(=O)[nH]c3cc(C(F)(F)F)ccc3n2c1CN1CCN(C)CC1 | 255 °C |
| CCCN1C(=O)N2C[C@@H](Cc3ccccc3)N=C2c2[nH]c(CSCC)nc21 | 178 to 180 °C |
| CCSc1nn2c(-c3ccc(OC)cc3)nnc2c2ccccc12 | 176 to 178 °C |

Query: # query: melting point of entry CCCC1CC(=O)C(C(=O)NS(=O)(=O)c2ccc(C)cc2)C(=O)C1 (configuration not stated)
Reply: 132 to 134 °C

Query: Suppose we examine the compound CCCc1nn(-c2ccc(C(F)(F)F)cn2)cc1CCCCn1cc(CCC(=O)O)c(-c2ccc(F)cc2)n1 ; what melting point value has been reported?
Reply: 119 to 121 °C

Query: I would be grateful if you could share the reported melting point for Nc1cccc(-c2ccc(-c3ccc(CCN4CC5C(N)C5C4)cc3)cc2)n1 (configuration not stated) .
Reply: 205 °C

Query: Can you share its melting point? I mean this compound: OCc1ccc2c(c1)Nc1nccnc1S2
Reply: 187 to 189 °C

Query: Item under review: O=C(c1ccccc1)c1ccc(Cl)nc1 . Reported melting point?
Reply: 39 to 40 °C

Query: Entry under review: O=C1c2ccccc2-c2c1c(N1CCN(c3ccccn3)CC1)nc1ccc(Br)cc21 . Reported melting point?
Reply: 186 to 188 °C

Query: Field request: melting point | item: c1cc2c(Nc3ccc4[nH]ncc4c3)ncnc2cn1
Reply: 258 °C

Query: Given the entry CNC(=O)N(O)CC#Cc1cccc(C2=N[C@H](c3ccccc3)CO2)c1 , report its measured melting point.
Reply: 163 to 165 °C

Query: melting point lookup needed for CCc1nc2c(N)nc3ccccc3c2n1CC1(O)CCOCC1 , thanks.
Reply: > 250 °C

Query: Reported melting point, compound CCOC(=O)c1cn(Cc2ccc(Oc3ccccc3)cc2)nc1O : ____
Reply: 117 to 118 °C

Query: Quick one: melting point for CC(C)(C)OC(=O)Nc1ccc(CCO)cc1 ?
Reply: 104 to 105 °C

Query: Quick one: melting point of CCc1cc(O)n2ncnc2n1 ?
Reply: 212 °C

Query: Bench note: what melting point did CC(C)(C)OC(=O)NCCCCCCCBr show?
Reply: 48 to 49 °C

Query: Quick one: melting point for CC(C(N)=O)c1ccc2c(c1)CCc1ccccc1C2=O (configuration not stated) ?
Reply: 175 °C

Query: Any idea what its melting point is? The compound is COc1cc(NC(=O)CCCCCBr)c2nccc(C)c2c1
Reply: 111 to 113 °C

Query: Data request, read-out melting point, for CCOC(=O)c1cc(=O)c2ccc(OCCCCl)cc2o1
Reply: 107 to 108 °C

Query: Dear colleague, I am looking for the recorded melting point of the following compound: COc1c(OC)c(O)c2c(=O)c3ccc(O)c(OC)c3[nH]c2c1OC
Reply: 214 to 215 °C
